Target: T1, human LAG-3 overexpressed on cells (human, UniProt P18627 23-525)
T1 sequence (looked up): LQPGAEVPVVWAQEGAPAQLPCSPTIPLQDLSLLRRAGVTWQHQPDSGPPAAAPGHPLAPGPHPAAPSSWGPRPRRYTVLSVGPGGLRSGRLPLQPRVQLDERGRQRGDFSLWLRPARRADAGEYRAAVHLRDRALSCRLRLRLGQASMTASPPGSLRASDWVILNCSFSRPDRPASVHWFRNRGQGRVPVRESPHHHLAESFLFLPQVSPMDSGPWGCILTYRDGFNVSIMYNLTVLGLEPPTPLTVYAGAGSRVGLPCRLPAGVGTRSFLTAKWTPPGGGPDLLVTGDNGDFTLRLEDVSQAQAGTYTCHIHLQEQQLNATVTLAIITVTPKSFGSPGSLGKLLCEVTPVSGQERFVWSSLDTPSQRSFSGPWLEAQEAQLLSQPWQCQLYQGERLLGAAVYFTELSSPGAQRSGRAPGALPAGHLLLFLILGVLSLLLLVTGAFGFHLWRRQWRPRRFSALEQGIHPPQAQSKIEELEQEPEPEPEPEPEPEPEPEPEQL
Test: cell-based or functional assay
Measured EC50 (µg/ml), LAG3/MHC class II Blockade bioassay accompanies every entry in the list below.
Field format: number, assumed µg/mL, no unit text.

>>> reading("LAG3-1E09_AM_2E09 (antibody, V domains shown, Tested as full IgG) VH: EVQLVESGGDLVKPGGSLRLSCAASGFSFSDHYMNWVRQAPGKGLEWVAYIDTNATYIYYADSVKGRFTISRDNAKNSLYLQMNSLRAEDTAVYYCARDNWGSLDYWGQGTLVTVSS VL: DIQMTQSSSSLSASVGDRVTITCQASQDITDFLNWYQQKPGKAPKLLIYDASNLETGIPSRFSGSGSGREFTLTINSLQPEDVASYYCQQSYTTPLTFGGGTKVDIK")
0.482
>>> reading("LAG3-1E09_AM_2H06 (antibody, V domains shown, Tested as full IgG) VH: EVQLVESGGDLVKPGGSLRLSCAASGFTFSDHYMNWVRQAPGKGLEWVAYIDTIATYIYYADSVKGRFTISRDNAKNSLYLQMNSLRAEDTAVYYCARDNWGSLDYWGQGTLVTVSS VL: DIQMTQSPSSLSASVGDRVTITCQASQDISNYLNWYQQTPGKAPKLLIYDASNLETGVPSRFSGSGSGTDFTLTISSLQPEDFATYYCQQGYGTPYTYGQGTKLEIK")
0.606
>>> reading("LAG3-1E09_AM_2G11 (antibody, V domains shown, Tested as full IgG) VH: EVQLVESGGDLVKPGGSLRLSCAASGFSFTDHYMNWVRQAPGKGLEWVAYIDTSATYIYYADSVKGRFTISRDNAKNSLYLQMNSLRAEDTAVYYCARDNWGSLDYWGQGTLVTVSS VL: DIQMTQSPSSLSASVGDRVTITCRASQSISYYLNWYQQRPGKAPKLLIYDASNLETGVPSRFSGSGTGTEFTLTISSLQPEDFATYYCQQSYSTPFAFGPGTKVEIK")
0.246
>>> reading("LAG3-1E09_AM_1H07 (antibody, V domains shown, Tested as full IgG) VH: EVQLVESGGDLVQPGGSLRLSCAASGFSFNDHYMNWVRQAPGKGLEWVAYIDTSATYIYYADSVKGRFTISRDNAKNSLYLQMNSLRAEDTAVYYCARDNWGSLDYWGQGTLVTVSS VL: DIQMTQSPSSLSASVGDRVTITCQASQDISNYLNWYQQKPGKAPKLLIYEASSLESGVPSRFSGSGSGTEFTLTINSLQPEDFATYYCQQSYSTPFAFGPGTKVEIK")
0.448

Prompt: Quick one: give measured EC50 (µg/ml), LAG3/MHC class II Blockade bioassay for LAG3-1E09_LS_1G11 (antibody, V domains shown, Tested as full IgG) VH: EVQLVESGGDLVQPGGSLRLSCAASGFNFSDHYMNWVRQAPGKGLEWVAYIDTTATYIYYADSVKGRFTISRDNAKNSLYLQMNSLRAEDTAVYYCARDNWGSLDYWGQGTLVTVSS VL: DIQMTQSPSSLSASVGDRVTITCQASQDIDKYLNWYQQKPGKAPKLLIYDASNLETGVPSRFSGSGSGTDFTLTISSLQPEDFATYYCQQSYSTPNTFGQGTKLDIK
Completion: 1.51
